Reference source for all entries: patent US20140039044A1

Exercise: for every item that follows, state its recorded Cell Cycle Distribution G2/M.
# Test system: COLO205 cells
# method description: Cell cycle distribution by flow cytometry
# Assay type: cell-based, human
# experimental parameters: COLO205 cells, 100 μM, 24 h, Table 12
Lab note: record the figure alone, no unit after it.

[Q] Lab note: need Cell Cycle Distribution G2/M for COc1ccc(-c2cc(=O)c3c(OC)c(OC)c(OC)c(OC)c3o2)cc1OC [Compound A, 5,6,7,8,3′,4′-hexamethoxyflavone, reference compound] on COLO205 cells, anyone have it?
[A] 6.20

[Q] Next compound: COc1ccc(-c2oc3c(OC)c(OC)c(OC)c(OC)c3c(=O)c2OC)cc1OC [D, 3,5,6,7,8,3,4-heptamethoxyflavone, reference compound]
[A] 5.72

[Q] Next compound: COc1ccc(-c2oc3c(OC)c(OC)c(OC)c(O)c3c(=O)c2OC)cc1OC
[A] 19.04

[Q] Next compound: COc1ccc(-c2cc(=O)c3c(O)c(OC)c(OC)c(OC)c3o2)cc1OC
[A] 7.05

[Q] Next compound: COc1ccc(-c2cc(=O)c3c(OC)c(OC)c(OC)c(OC)c3o2)cc1O
[A] 0.02

[Q] Next compound: COc1ccc(-c2cc(=O)c3c(O)c(OC)c(OC)c(OC)c3o2)cc1O
[A] 22.85

[Q] Next compound: COc1cc(-c2cc(=O)c3c(OC)c(OC)c(OC)c(OC)c3o2)ccc1O
[A] 7.61

###

Exercise: for every item that follows, state its recorded Cell Cycle Distribution G0/G1.
# System: AGS cells
# method description: Cell cycle distribution by flow cytometry
# Type: cell-based, human
# experimental parameters: 100 μM, 24 h, Table 11
Lab note: record the figure alone, no unit after it.

[Q] Lab note: need Cell Cycle Distribution G0/G1 for COc1cc(-c2cc(=O)c3c(OC)c(OC)c(OC)c(OC)c3o2)ccc1O [Compound G] on AGS cells, anyone have it?
[A] 50.27

[Q] Next molecule: COc1ccc(-c2oc3c(OC)c(OC)c(OC)c(OC)c3c(=O)c2O)cc1OC [B]
[A] 46.8

[Q] Next molecule: COc1ccc(-c2cc(=O)c3c(O)c(OC)c(OC)c(OC)c3o2)cc1O [Compound K]
[A] 50.77

[Q] Next molecule: COc1ccc(-c2cc(=O)c3c(O)c(OC)c(OC)c(OC)c3o2)cc1OC [J]
[A] 58.11

[Q] Next molecule: COc1c(OC)c(OC)c2c(=O)cc(-c3ccc(O)c(O)c3)oc2c1OC [H]
[A] 68.04

[Q] Next molecule: COc1cc(-c2cc(=O)c3c(O)c(OC)c(OC)c(OC)c3o2)cc(OC)c1OC [E]
[A] 55.68

###

# System: COLO205 cells
# method description: Cell cycle distribution by flow cytometry
# Type: cell-based, human
# experimental parameters: COLO205 cells, 100 μM, 24 h, Table 12
Exercise: for every item that follows, state its recorded Cell Cycle Distribution S.
Lab note: record the figure alone, no unit after it.

[Q] Lab note: need Cell Cycle Distribution S for COc1ccc(-c2oc3c(OC)c(OC)c(OC)c(O)c3c(=O)c2OC)cc1OC on COLO205 cells, anyone have it?
[A] 29.13

[Q] Next molecule: COc1ccc(-c2oc3c(OC)c(OC)c(OC)c(OC)c3c(=O)c2O)cc1OC
[A] 17.51

[Q] Next molecule: COc1cc(-c2cc(=O)c3c(O)c(OC)c(OC)c(OC)c3o2)cc(OC)c1OC
[A] 24.50

[Q] Next molecule: COc1ccc(-c2cc(=O)c3c(O)c(OC)c(OC)c(OC)c3o2)cc1OC
[A] 30.57

[Q] Next molecule: COc1cc(-c2cc(=O)c3c(OC)c(OC)c(OC)c(OC)c3o2)ccc1O
[A] 19.35
